# run.description: ATG_PXRE_CIS: Attagene CIS-FACTORIAL HepG2 Assay for human Pregnane X Receptor Element (PXRE) (AID 2282957)
# experimental.setup: HepG2 Attagene CIS-FACTORIAL PXRE reporter, mRNA; actives raise or lower the signal
The source made the active and inactive calls. How the source made its calls: active means hit-call score of the fitted dose curve at least 0.9, where 1 is the maximum; inactive means score below 0.9.
Possible outcomes: y (active), n (inactive)

structure.notation	assigned.class
C/C=C/c1ccc(OC)cc1	n
CC(=O)OCC(COC(C)=O)OC(C)=O	n
CC1(C)C(=O)NC(=O)N1CO	n
CCCCCCCCCCCCCCCCO	n
CCCCCCCC(=O)OC	n
Cc1cc(Cc2ccc(N)c(C)c2)ccc1N	n
COC(=O)CCCC(=O)OC	n
Oc1ccc(O)cc1	n
CN(C)C(=O)NC1(c2ccccc2)CCN(CC[C@@]2(c3ccc(F)c(F)c3)CN(C(=O)c3ccccc3)CCO2)CC1	y
CO[C@@H]1COCC[C@@H]1N[C@@H]1CC[C@@](C(=O)N2CCc3ncc(C(F)(F)F)cc3C2)(C(C)C)C1	n
O=C(NS(=O)(=O)/C=C/c1cccs1)c1ccc(F)cc1Br	y
O=NO	n
CCc1cc(C2=C(C(=O)O)N(c3ccccc3C(F)(F)F)S(=O)(=O)c3ccccc32)cc2c1OCO2	y
Cc1ccc(-c2cc(C(F)(F)F)nn2-c2ccc(S(N)(=O)=O)cc2)cc1	y
O=C1c2c(O)cccc2Cc2cccc(O)c21	n
COc1ccc(OC(F)(F)F)cc1CN[C@H]1CCCN[C@H]1c1ccccc1	y
S=c1[nH]c2ccccc2s1	y
CCCCc1nc2cccnc2n1Cc1ccc(-c2ccccc2-c2nnn[nH]2)cc1	y
CCCC[C@H]1CN(CC2CCOCC2)C(=O)OC12CCN(C1(C)CCN(C(=O)c3c(C)ncnc3C)CC1)CC2	n
O=C(O)c1cccnc1	n
C=CCc1ccc(OC)c(OC)c1	y
CN(C)C(=O)NC1(c2ccccc2)CCN(CCC[C@]2(c3ccc(Cl)c(Cl)c3)CCCN(C(=O)c3ccccc3)C2)CC1	y
Cc1cn([C@H]2C=C[C@@H](CO)O2)c(=O)[nH]c1=O	n
CCOCCOCCO	n
Cc1cc(SC2=C(O)C[C@@](CCc3ccc(N)cc3)(C(C)C)OC2=O)c(C(C)(C)C)cc1CO	y

###

# target.desc: rat Opioid Receptor, Non-selective Sodium (Na+) Binding, Oprm1 (gene 25601)
# run.description: NVS_GPCR_rOpiate_NonSelectiveNa: NovaScreen (NVS) G Protein-Coupled Receptor Assay for rat Opioid Receptor, Non-selective Sodium (Na+) Binding (AID 2283311)
Records with an inconclusive call do not appear. Activity calls are given as the source filed them. The calls were made as follows: active = hit-call score of the fitted dose curve at least 0.9, where 1 is the maximum; inconclusive = response in the unintended direction; inactive = score below 0.9.

compound	outcome
Cc1cc(SC2=C(O)C[C@@](CCc3ccc(N)cc3)(C(C)C)OC2=O)c(C(C)(C)C)cc1CO	inactive
Cc1c(C)c2c(c(C)c1O)CCC(C)(COc1ccc(CC3SC(=O)NC3=O)cc1)O2 (stereo not drawn)	inactive
CCc1nc(N)nc(N)c1-c1ccc(Cl)cc1	inactive

###

# Read-out: sulfotransferase 2A1 (SULT2A1), SULT2A1 (gene 6822)
# run.description: LTEA_HepaRG_SULT2A1: Life Technologies and Expression Analysis (LTEA) Assay for sulfotransferase 2A1 (SULT2A1) using HepaRG (AID 2283531)
# experimental.setup: mRNA level, 48 h; actives raise or lower the signal
Active and inactive are the calls of the source. The calls were made as follows: active = hit-call score of the fitted dose curve at least 0.9, where 1 is the maximum; inactive = score below 0.9.
Outcome codes: Yes (active), No (inactive)

molecule	assigned.class
CC(N)=O	No
O=C(Oc1ccccc1)c1cccc(C(=O)Oc2ccccc2)c1	No
CN(C)CCCN(C)CCCN(C)C	No
CCCCCCCC(=O)OC	No
CCCCC(CC)COC(=O)CCCCCCCC(=O)OCC(CC)CCCC (configuration not stated)	No
Cc1cn([C@H]2C=C[C@@H](CO)O2)c(=O)[nH]c1=O	No
CN(C)CCCN1c2ccccc2Sc2ccc(Cl)cc21	Yes
Cc1ccc(-c2cc(C(F)(F)F)nn2-c2ccc(S(N)(=O)=O)cc2)cc1	Yes
CCCCCCCCCCCCCCOS(=O)(=O)O	No
COc1ccc(C(=O)Nc2nc3ccccc3c(NCc3ccccc3)c2C#N)cc1	Yes
O=[Si]=O	No
O=C(O)CC(O)(CC(=O)O)C(=O)O	No
O=C1OC(c2ccc(O)cc2)(c2ccc(O)cc2)c2ccccc21	No
Cc1occc(=O)c1O	No
Cn1cnc2c1c(=O)[nH]c(=O)n2C	No
CC(C)c1cccc(C(C)C)c1	No
CCc1cc(C2=C(C(=O)O)N(c3ccccc3C(F)(F)F)S(=O)(=O)c3ccccc32)cc2c1OCO2	Yes
C#CC(O)C(CC)CCCC (configuration not stated)	No
O=C(O)CN(CC(=O)O)CC(=O)O	No
O=Cc1ccccc1C=O	No
CCN(CC)CCOc1ccc(C(=C(Cl)c2ccccc2)c2ccccc2)cc1	Yes
c1ccc2occc2c1	No
CC(=O)CC(c1ccccc1)c1c(O)c2ccccc2oc1=O (configuration not stated)	No
CC(C)(C)c1ccccc1	No
CO[C@@H]1COCC[C@@H]1N[C@@H]1CC[C@@](C(=O)N2CCc3ncc(C(F)(F)F)cc3C2)(C(C)C)C1	No
S=c1[nH]c2ccccc2s1	No
CC(C)(O)c1ccc(CNC(=O)c2cccnc2Oc2ccc(F)cc2)cc1	No

###

# run.description: ATG_BRE_CIS: Attagene CIS-FACTORIAL HepG2 Assay for human Bone Morphogenetic Protein (BMP) Response Element (BRE) (AID 2282933)
# experimental.setup: HepG2 BMP response element reporter, Attagene transcription factor profiling; actives raise or lower the signal
The source made the active and inactive calls. The calls were made as follows: active = hit-call score of the fitted dose curve at least 0.9, where 1 is the maximum; inactive = score below 0.9.
Outcome codes: active, inactive

compound	assigned.class
COC(=O)CCC(=O)OC	inactive
OCC(CO)n1cnc(-c2ccc(F)cc2)c1-c1ccnc(Oc2ccccc2)n1	inactive
CC(COCC(C)OC(=O)c1ccccc1)OC(=O)c1ccccc1 (stereo unspecified)	inactive
CC(C)c1cccc(C(C)C)c1NC(=O)NS(=O)(=O)c1cc(C(C)(C)O)co1	inactive
O=C(O)CN(CC(=O)O)CC(=O)O	inactive
CCCCCCCCCCCCCCOS(=O)(=O)O	inactive
O=C(O)c1[nH]n(-c2ccc(S(=O)(=O)O)cc2)c(=O)c1N=Nc1ccc(S(=O)(=O)O)cc1	inactive
O=Cc1ccccc1C=O	inactive
CCCC[C@H]1CN(CC2CCOCC2)C(=O)OC12CCN(C1(C)CCN(C(=O)c3c(C)ncnc3C)CC1)CC2	inactive
CC(C)OC(=O)C(C)(C)Oc1ccc(C(=O)c2ccc(Cl)cc2)cc1	active
CCCCC(CC)COP(=O)(OCC(CC)CCCC)OCC(CC)CCCC (stereo unspecified)	inactive

###

# target.desc: Estrogen receptor beta (Homo sapiens)
# run.description: OT_ER_ERbERb_1440: Odyssey Thera (OT) 24-hour HEK293T Protein-Complementation Assay for Estrogen Receptor-beta/-beta Homodimer (AID 2283380);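 further: fluorescence gain from ER beta LBD homodimer complementation read by laser scanning cytometry; scored as signal increase over DMSO baseline for both agonists and antagonists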
Active and inactive are the calls of the source. How the source made its calls: active means hit-call score of the fitted dose curve at least 0.9, where 1 is the maximum; inconclusive means response in the unintended direction; inactive means score below 0.9.
Labels: active, inactive

structure.notation	assigned.class
Cc1cn([C@H]2C=C[C@@H](CO)O2)c(=O)[nH]c1=O	inactive
CS(=O)(=O)c1ccc([C@@H](C[C@H]2CCC(=O)C2)C(=O)Nc2cnccn2)cc1Cl	inactive
O=C(Oc1ccccc1)c1cccc(C(=O)Oc2ccccc2)c1	inactive
O=C1OC(c2ccc(O)cc2)(c2ccc(O)cc2)c2ccccc21	active
CCCCCCCCCCCCCCOS(=O)(=O)O	inactive
COc1ccc(C(=O)Nc2nc3ccccc3c(NCc3ccccc3)c2C#N)cc1	inactive
CC(=O)O[C@]1(C(C)=O)CC[C@H]2[C@@H]3C=C(Cl)C4=CC(=O)[C@@H]5C[C@@H]5[C@]4(C)[C@H]3CC[C@@]21C	inactive
O=C1O[C@H]([C@H](O)CO)C(O)=C1O	inactive
Nc1nc(=S)c2[nH]cnc2[nH]1	inactive
O=C(N[C@@H](c1ccccc1)[C@@H]1CCCCN1)c1cccc(C(F)(F)F)c1Cl	inactive

###

# target.desc: chimpanzee Androgen Receptor (AR), AR (gene 747460)
# run.description: NVS_NR_cAR: NovaScreen (NVS) Nuclear Receptor Binding Assay for chimpanzee Androgen Receptor (AR) (AID 2283346);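 further: radioligand displacement from AR measured by scintillation counting in a cell-free assay; a loss of bound radioligand signal versus DMSO counts as binding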
Records with an inconclusive call do not appear. Calls of active or inactive are those of the source. The calls were made as follows: active = hit-call score of the fitted dose curve at least 0.9, where 1 is the maximum; inconclusive = response in the unintended direction; inactive = score below 0.9.
AC50 by entry:

compound	target.desc	AC50
CCCCC(CC)COP(=O)(OCC(CC)CCCC)OCC(CC)CCCC (centres undefined)	chimpanzee Androgen Receptor (AR), AR (gene 747460)	18.1 µM (active)
CCc1cc(C2=C(C(=O)O)N(c3ccccc3C(F)(F)F)S(=O)(=O)c3ccccc32)cc2c1OCO2	chimpanzee Androgen Receptor (AR), AR (gene 747460)	25 µM (active)
COC(=O)[C@H]1[C@H]2C[C@@H]3c4[nH]c5cc(OC)ccc5c4CCN3C[C@H]2C[C@@H](OC(=O)c2cc(OC)c(OC)c(OC)c2)[C@@H]1OC	chimpanzee Androgen Receptor (AR), AR (gene 747460)	19.2 µM (active)

###

# run.description: BSK_KF3CT_SRB: Viability Assessment in the BioMAP Diversity Plus: KF3CT Assay (AID 2283069);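 further: total protein by sulforhodamine B staining as a cytotoxicity measure; read 24 h after compound addition; fitted for both signal gain and loss against DMSO baseline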
# experimental.setup: primary human keratinocytes with fibroblasts
Activity calls are given as the source filed them. The calls were made as follows: active = hit-call score of the fitted dose curve at least 0.9, where 1 is the maximum; inactive = score below 0.9.
Labels: YES = active, NO = inactive

molecule	assigned.class
NCCOCCOCCN	NO
CC(C)(O)c1ccc(CNC(=O)c2cccnc2Oc2ccc(F)cc2)cc1	NO
CCc1nc(N)nc(N)c1-c1ccc(Cl)cc1	NO
Cc1occc(=O)c1O	NO
O=C1c2c(O)cccc2Cc2cccc(O)c21	NO
CN(C)CCCN(C)CCCN(C)C	NO
C=CCCCCCCCCCCCC	NO
CCCC(=O)O	NO
CC(=O)O	NO
NC1CCCCC1	NO
CS(=O)(=O)c1ccc([C@@H](C[C@H]2CCC(=O)C2)C(=O)Nc2cnccn2)cc1Cl	NO
CC(C)c1cccc(C(C)C)c1NC(=O)NS(=O)(=O)c1cc(C(C)(C)O)co1	NO
O=C(O)c1[nH]n(-c2ccc(S(=O)(=O)O)cc2)c(=O)c1N=Nc1ccc(S(=O)(=O)O)cc1	NO
Cc1ccc(C(C)(C)C)c(O)c1	NO
CCCC[C@H]1CN(CC2CCOCC2)C(=O)OC12CCN(C1(C)CCN(C(=O)c3c(C)ncnc3C)CC1)CC2	NO
S=c1[nH]c2ccccc2s1	NO
O=C(Oc1ccccc1)c1cccc(C(=O)Oc2ccccc2)c1	NO
CN(C)C(=O)NC1(c2ccccc2)CCN(CCC[C@]2(c3ccc(Cl)c(Cl)c3)CCCN(C(=O)c3ccccc3)C2)CC1	NO
CCN(CC)CCOc1ccc(C(=C(Cl)c2ccccc2)c2ccccc2)cc1	YES
CCCCCCCCCC[N+](C)(C)[O-]	NO
CSc1ccc(Oc2ccc(S(N)(=O)=O)cc2CN(C)C)cc1C	NO
CC(=O)S[C@H](C(=O)N[C@H]1Cc2ccccc2[C@H]2CCC[C@@H](C(=O)O)N2C1=O)C(C)C	NO
CC(C)NCC(O)c1ccc(O)c(O)c1 (stereo unspecified)	NO
CCCCCCCC(=O)OC	NO
CC(=O)OC1CC(C)OC(C)O1 (stereo unspecified)	NO
COc1ccc(OC(F)(F)F)cc1CN[C@H]1CCCN[C@H]1c1ccccc1	NO

Sourced from PubChem BioAssay (EPA / NIEHS)
